# Assay System: human LXR beta (Homo sapiens, UniProt P55055)
# Sequence (P55055 155-460): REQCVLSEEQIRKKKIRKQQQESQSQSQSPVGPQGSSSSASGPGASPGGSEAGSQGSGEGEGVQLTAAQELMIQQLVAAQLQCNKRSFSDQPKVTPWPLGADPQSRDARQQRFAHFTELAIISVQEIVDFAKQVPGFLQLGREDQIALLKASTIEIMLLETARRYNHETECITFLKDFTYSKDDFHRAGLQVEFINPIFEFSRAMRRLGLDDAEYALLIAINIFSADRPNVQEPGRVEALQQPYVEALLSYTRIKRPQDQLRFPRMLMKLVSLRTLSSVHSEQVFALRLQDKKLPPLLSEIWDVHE
pIC50: −log10 of the molar value.
Quantity Measured: pIC50

P: COC(=O)c1ccc(OC(COc2ccc(C(O)(C(F)(F)F)C(F)(F)F)cc2)c2ccccc2)cc1 (racemic)
Q: Cc1oc(-c2cccc(Cl)c2)nc1COc1ccc(C(O)(C(F)(F)F)C(F)(F)F)cc1Cl
Which has the higher pIC50, P or Q ? Output the label that corresponds to your choice. P
